- TARGET_OR_TEST_SYSTEM: JAK1 (Homo sapiens (Human), UniProt P23458)
- Sequence (P23458 875-1153): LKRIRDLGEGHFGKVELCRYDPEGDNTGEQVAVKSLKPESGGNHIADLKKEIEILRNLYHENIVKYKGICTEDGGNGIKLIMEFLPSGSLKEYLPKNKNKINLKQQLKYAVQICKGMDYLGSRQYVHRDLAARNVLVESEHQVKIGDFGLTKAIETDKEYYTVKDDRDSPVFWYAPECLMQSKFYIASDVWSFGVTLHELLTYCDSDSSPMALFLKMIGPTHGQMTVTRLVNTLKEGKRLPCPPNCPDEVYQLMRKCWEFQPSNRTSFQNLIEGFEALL
- EXPERIMENT: Jak Biochemical HTRF Assay (JAK1)
- CONDITION_SET: recombinant GST-tagged catalytic domain, [ATP] 31.8 μM, unit not given (compound concentrations tested given in nM)
PARAMETER_MEASURED: IC50 (nM)

Here's what some known entries look like.
[[record]]
molecule = "N#Cc1ccc(Nc2nn([C@H]3COCC[C@@H]3C#N)c3cc[nH]c(=O)c23)cc1"
unit_of_measure = "nM"
measured_result = 0.12

[[record]]
molecule = "CS(=O)(=O)c1cc(Nc2nn(C3COCC[C@@H]3C#N)c3cc[nH]c(=O)c23)ccc1Cl (stereo partly drawn)"
unit_of_measure = "nM"
measured_result = 1.64

[[record]]
molecule = "N#C[C@H]1CCOC[C@@H]1n1nc(Nc2ccc(C(N3CCSCC3)C(F)(F)F)cc2)c2c(=O)[nH]ccc21 (single isomer, unassigned) [Example 2-5]"
unit_of_measure = "nM"
measured_result = 0.14


(P) CC1CN(S(=O)(=O)c2ccc(Nc3nn([C@H]4COCC[C@@H]4C#N)c4cc[nH]c(=O)c34)cc2)CCO1 (single isomer, unassigned) [Example 1-75]
(Q) CC(C)(C)S(=O)(=O)c1ccc(Nc2nn(C3COCCC[C@H]3C#N)c3cc[nH]c(=O)c23)cc1 (single isomer, unassigned)
Prompt: Between P and Q , which one has the lower reported IC50 value? Refer to your chosen item by its label in the answer.
Completion: P
(P: 0.14 nM, Q: 12.4 nM)
